# Tested System: Ribosomal protein S6 kinase alpha-5 (Homo sapiens) (UniProt O75582);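 further: mean inhibition of MSK1, from screening of the GSK PKIS inhibitor set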
# Sequence (O75582 whole entry, looked up): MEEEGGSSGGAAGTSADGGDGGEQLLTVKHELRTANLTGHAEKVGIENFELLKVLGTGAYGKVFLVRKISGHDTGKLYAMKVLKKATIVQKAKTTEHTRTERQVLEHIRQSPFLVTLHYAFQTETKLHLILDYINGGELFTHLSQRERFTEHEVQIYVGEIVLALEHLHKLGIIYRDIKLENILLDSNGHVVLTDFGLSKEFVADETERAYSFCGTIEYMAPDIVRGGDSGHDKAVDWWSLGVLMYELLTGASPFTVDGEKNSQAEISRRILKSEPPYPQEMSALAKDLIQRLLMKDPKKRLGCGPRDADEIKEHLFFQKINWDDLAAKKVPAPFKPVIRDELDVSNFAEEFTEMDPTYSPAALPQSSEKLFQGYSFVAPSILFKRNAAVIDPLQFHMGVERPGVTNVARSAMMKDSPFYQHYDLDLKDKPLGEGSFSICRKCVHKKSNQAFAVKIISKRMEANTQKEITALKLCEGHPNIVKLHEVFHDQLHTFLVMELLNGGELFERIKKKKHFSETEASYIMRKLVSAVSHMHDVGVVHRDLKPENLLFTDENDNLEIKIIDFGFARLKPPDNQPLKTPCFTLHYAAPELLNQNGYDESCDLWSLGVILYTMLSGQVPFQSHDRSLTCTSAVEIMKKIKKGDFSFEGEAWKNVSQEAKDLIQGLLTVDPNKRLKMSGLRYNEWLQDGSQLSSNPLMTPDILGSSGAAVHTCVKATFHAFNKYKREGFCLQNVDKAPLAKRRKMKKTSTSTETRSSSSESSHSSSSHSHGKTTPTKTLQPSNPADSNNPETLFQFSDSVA
# Cond: at 1 µM
Classification field: enter 1 for inhibition values not below 3%, -1 for values below it.

Please review the following examples before continuing.
COc1ccc(C2=C(N3CCc4ccccc43)C(=O)NC2=O)cc1 | 1
CCS(=O)(=O)c1ccc(OC)c(Nc2ncc(-c3ccccc3Cl)o2)c1 | 1
CCN(CC)Cc1ccc(Nc2nccc(-c3cnn4ncccc34)n2)cc1 | -1
COc1cc(C)c(N(C)C(=O)CN(C)C)cc1Nc1nc(Nc2cccc(F)c2C(N)=O)c2cc[nH]c2n1 | -1
C#Cc1cccc(Nc2ncnc3ccc(OCCCCNCCS(C)(=O)=O)cc23)c1 | -1

Let us examine a further case.
**Query** Quick check, inhibition >= 3%? Fc1ccc(-c2c(-c3ccncc3)nc3n2CCS3)cc1
**Result** 1

Measured values drawn from ChEMBL document CHEMBL1961873 for this set.
